For each entry below, report its log10 of Kd value.
biological target: SARS-CoV-2 RBD (SARS-CoV-2, UniProt P0DTC2 319-541)
Each number you see is log10 of Kd, and the unit inside the log is nM.

query: Param item = 53182-9 (antibody, V domains shown) VH: EVQLVESGGGLILPGGSLRLSCAASGVTVSSNYMNWVRQAPGKGLEWVSVIYSGGSTFYADSVKGRFTISRDNSKNTLYLQMNSLRAEDTAVYYCARGGWPSGDTFDIWGQGTMVTVSS VL: DIQLTQSPSFLSASVGDRVTITCRASQGISSYLAWYQQKPGKAPKLLIYAASTLQSGVPSRFSGSGSGTEFTLTISSLQPEDFATYYCQQLNSYPEITFGPGTKVDIK ; retrieve measured log10 of Kd.
result: -1.32

query: Param item = 53182-11 (antibody, V domains shown) VH: EVQLVEFGGGLVQPGRSLRLSCATSGFTFEDFDMHWVRQAPGKGLEWVSGSTWNSGIIGYADSVKGRFTTSRDNAKNSLYMQMNNLREEDTALYYCAKDIGRYDHYNIFGRVGGAFDIWGQGTMVTVSS VL: DIQMTQSPSSLSASVGDRVTISCQTSQDISVSLNWYQQKPGKPPKVLIYDASNLEAGAPSRFSGSGSGTDFTFTISSLQPEDIATYYCQHYDNLPRFGPGTKVDIK ; retrieve measured log10 of Kd.
result: 0.50

query: Param item = 5317-7 (antibody, V domains shown) VH: EVQLVGSGGGLVQPGGSLRLSCAASGFTFSTYWMSWVRQAPGKGLEWVADIKQDGSEKYYVDSVKGRFTISRDNAKNSLYLQMNSLRVEDTALYYCARGGLWGTFDYWGQGTLVTVSS VL: EIVLTQSPGTLSLSPGERASLSCRASQSVSSSYLAWYQQKPGQAPRLLIYGASSRATGIPDRFSGSGSGTDFTLTISRLEPEDFAVYWCQQFAYSLYTFGQGTKLEIK ; retrieve measured log10 of Kd.
result: 1.02

query: Param item = 5317-3 (antibody, V domains shown) VH: EVQLVESGGGLVQPGGSLRLSCSASGFTFSSYPMYWVRQAPGIGLEYVSGITDNGGSTYYGDSVKGRFTISRDNSKNTLNLQMNNLRTEDTAVYYCVKGKIQLWLGADYWGQGTLVTVSS VL: DIQMTQSPSSLSASVGDRVTITCRANQTISSYLNWYQQKPGKAPKVLIFAASSLEGGVPSRFSGSGSGTDFTLTISSLQPEDFATYSCQQSYNTPWTFGQGTKVEIK ; retrieve measured log10 of Kd.
result: 0.28

query: Param item = antibody 5317-4 (antibody, V domains shown) VH: QVQLRLWGAGLLKPSETLSLTCAVSGGSFIDYYWTWIRQPPGKGLEWIGEINHFGGSGYNPSLKSRVSISVDTSKNQFSLRLNSVTAADTAIYYCARKPLLHSSVNPGAFDIWGQGTMLTVSS VL: EIVLTQSPGTLSLSPGERAALSCRASQSVAGTYLAWYQQKPGQAPRLLIYGASSRATGIPDRFSGSGSGTDFTLTISRLEPEDFAVYYCQQYATSPRTFGQGTQLEIR ; retrieve measured log10 of Kd.
result: 0.25

query: Param item = 53182-6 (antibody, V domains shown) VH: EVQLVESGGGLVQPGGSLRLSCAASGFTVSDNYMSWVRQAPGKGLQWVSVIYSGGNTYYADFVKGRFNITRDDSKNMLYLQMNSLRREDTAVYYCVRDRRIVGYYFGLDVWGQGTTVTVFS VL: QSALTQPASVSGSPGQSITISCTGTSSDVRNYNLVSWYQQHPGKAPKLMIFEDSKRPSGVSNRFSGSKSGNTASLTIAGLQPEDEADYYCCSYATTWVFGGGTKVTVL ; retrieve measured log10 of Kd.
result: -0.03
